Attribution: patent US8450331B2

# measuredTarget: CYP2D6 (Homo sapiens, UniProt P10635)
# Construct: human liver microsomes (0.4 mg/ml); from tissue; host or cells: human liver microsomes
# Sequence (P10635 whole entry): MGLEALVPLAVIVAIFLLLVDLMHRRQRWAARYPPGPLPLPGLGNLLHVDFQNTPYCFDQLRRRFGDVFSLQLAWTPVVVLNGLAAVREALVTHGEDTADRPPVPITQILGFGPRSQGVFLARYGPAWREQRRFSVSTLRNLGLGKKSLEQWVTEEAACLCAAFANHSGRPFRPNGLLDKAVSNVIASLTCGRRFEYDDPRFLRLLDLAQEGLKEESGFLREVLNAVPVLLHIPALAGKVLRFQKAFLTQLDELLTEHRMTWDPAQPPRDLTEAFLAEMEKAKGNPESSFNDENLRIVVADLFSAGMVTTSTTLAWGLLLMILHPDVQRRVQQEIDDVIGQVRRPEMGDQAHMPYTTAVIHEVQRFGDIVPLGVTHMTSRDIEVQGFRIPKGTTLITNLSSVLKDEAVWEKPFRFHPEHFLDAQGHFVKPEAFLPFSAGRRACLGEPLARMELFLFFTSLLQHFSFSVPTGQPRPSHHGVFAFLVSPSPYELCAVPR
# runDescription: CYP inhibition assay, human liver microsomes, CYP2D6
# Assay type: in vitro ADME
# conditions: co-incubation, dextromethorphan substrate, read-out: CYP 2D6 IC50 co

mol	measuredTarget	IC50
CCc1nc(N2C[C@H]3C(=O)N(C)C(=N)N[C@@]3(c3ccc(Cl)s3)C2)nc(C)c1F	CYP2D6 (Homo sapiens, UniProt P10635)	> 30 µM
COc1nc(N2C[C@H]3C(=O)N(C)C(=N)N[C@@]3(c3ccc(Cl)s3)C2)nc(C)c1F	CYP2D6 (Homo sapiens, UniProt P10635)	> 30 µM
Cc1nc(N2C[C@H]3C(=O)N(C)C(=N)N[C@@]3(c3cc(C#N)cs3)C2)nc(C2CC2)c1F	CYP2D6 (Homo sapiens, UniProt P10635)	> 30 µM
CCc1nc(N2C[C@H]3C(=O)N(C)C(=N)N[C@@]3(c3ccc(Cl)s3)C2)nc(OC)c1F	CYP2D6 (Homo sapiens, UniProt P10635)	22 µM

---

# measuredTarget: BACE1 (Homo sapiens, UniProt P56817)
# Construct: endogenous in cells
# Sequence (P56817 46-501): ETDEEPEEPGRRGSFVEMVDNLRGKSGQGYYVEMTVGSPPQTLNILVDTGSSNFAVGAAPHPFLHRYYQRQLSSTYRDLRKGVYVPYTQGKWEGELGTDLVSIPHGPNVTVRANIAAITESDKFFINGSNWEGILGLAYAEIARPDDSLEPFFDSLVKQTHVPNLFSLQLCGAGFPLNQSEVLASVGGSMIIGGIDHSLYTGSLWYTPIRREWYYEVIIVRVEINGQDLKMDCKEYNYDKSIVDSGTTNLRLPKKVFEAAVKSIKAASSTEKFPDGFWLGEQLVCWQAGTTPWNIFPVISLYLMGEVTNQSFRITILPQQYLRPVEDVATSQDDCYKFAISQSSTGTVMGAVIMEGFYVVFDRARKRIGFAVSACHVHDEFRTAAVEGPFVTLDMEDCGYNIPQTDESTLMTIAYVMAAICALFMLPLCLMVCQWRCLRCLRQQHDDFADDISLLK
# runDescription: BACE inhibitor whole cell IC50 determination using HEK293-APPswe/lon cells (Aβ40)
# conditions: 4 hours, Aβ40 in media, read-out: BACE1 A[…]40 IC50
pIC50: −log10 of the molar value.
metricName: pIC50

compound	numericResult
COc1nc(N2C[C@H]3C(=O)N(C)C(=N)N[C@@]3(c3ccc(Cl)s3)C2)nc(C2CC2)c1F [Example 11]	5.88
CCCc1nc(N2C[C@H]3C(=O)N(C)C(=N)N[C@@]3(c3ccc(Cl)s3)C2)nc(C)c1F [Example 15]	6.83
Cc1nc(N2C[C@H]3C(=O)N(C)C(=N)N[C@@]3(c3cc(C#N)cs3)C2)nc(C2CC2)c1F [Example 8]	6.68
Cc1nc(N2C[C@H]3C(=O)N(C)C(=N)N[C@@]3(c3ccc(C#N)s3)C2)nc(C2CC2)c1F [Example 9]	6.50

---

# measuredTarget: human liver Cathepsin D (Homo sapiens, UniProt P07339)
# Construct: Purified (>95%) human liver Cathepsin D; purchased Athens Research & Technology 16-12-030104; host or cells: human liver (tissue-derived)
# Sequence (P07339 169-412 limits assumed): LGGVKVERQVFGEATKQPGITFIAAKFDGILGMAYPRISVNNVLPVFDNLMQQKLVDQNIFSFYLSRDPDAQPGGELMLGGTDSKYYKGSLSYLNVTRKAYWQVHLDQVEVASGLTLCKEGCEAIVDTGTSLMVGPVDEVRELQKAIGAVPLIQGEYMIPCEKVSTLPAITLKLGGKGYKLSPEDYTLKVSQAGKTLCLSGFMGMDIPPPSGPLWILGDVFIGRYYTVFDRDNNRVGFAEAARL
# Sequence (P07339 65-161 limits assumed): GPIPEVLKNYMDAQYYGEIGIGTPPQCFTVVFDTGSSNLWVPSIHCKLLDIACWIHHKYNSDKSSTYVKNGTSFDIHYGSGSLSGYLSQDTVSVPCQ
# runDescription: Human Cathepsin D FRET assay
# Type: biochemical
# conditions: selectivity with respect to Cathepsin D versus BACE1
Checkbox rule: CathD Selectivity lower than 60 = true (1); CathD Selectivity not lower than 60 = false (0).

mol	discreteLabel
CCCc1nc(N2C[C@H]3C(=O)N(C)C(=N)N[C@@]3(c3ccc(Cl)s3)C2)nc(C)c1F	true (1)
Cc1nc(N2C[C@H]3C(=O)N(C)C(=N)N[C@@]3(c3ccc(C#N)s3)C2)nc(C)c1F	true (1)
Cc1nc(N2C[C@H]3C(=O)N(C)C(=N)N[C@@]3(c3cc(C#N)cs3)C2)nc(C2CC2)c1F	false (0)
CCCc1nc(N2C[C@H]3C(=O)N(C)C(=N)N[C@@]3(c3ccc(C#N)s3)C2)nc(C)c1F	true (1)
Cc1nc(N2C[C@H]3C(=O)N(C)C(=N)N[C@@]3(c3ccc(Cl)s3)C2)nc(C2CC2)c1Cl	false (0)

---

# measuredTarget: CYP2D6 (Homo sapiens)
# Construct: human liver microsomes (0.4 mg/ml); from tissue; host or cells: human liver microsomes
# runDescription: CYP inhibition assay, human liver microsomes, CYP2D6
# Format: in vitro ADME
# conditions: co-incubation, dextromethorphan substrate, read-out: CYP 2D6 IC50 co
metricName: IC50

compound	measuredTarget	result
CCCc1nc(N2C[C@H]3C(=O)N(C)C(=N)N[C@@]3(c3ccc(Cl)s3)C2)nc(OC)c1F [Example 10]	CYP2D6 (Homo sapiens)	6.1 µM
CCOc1nc(N2C[C@H]3C(=O)N(C)C(=N)N[C@@]3(c3ccc(Cl)s3)C2)nc(CC)c1F [Example 5]	CYP2D6 (Homo sapiens)	13.5 µM
[H]/N=C1\N[C@@]2(c3ccc(C#N)s3)CN(c3nc(C)c(F)c(OC)n3)C[C@H]2C(=O)N1C [Example 1]	CYP2D6 (Homo sapiens)	> 30 µM
Cc1nc(N2C[C@H]3C(=O)N(C)C(=N)N[C@@]3(c3ccc(Cl)s3)C2)nc(C2CC2)c1F [Example 6]	CYP2D6 (Homo sapiens)	> 30 µM
Cc1nc(N2C[C@H]3C(=O)N(C)C(=N)N[C@@]3(c3ccc(Cl)s3)C2)nc(C)c1F [Example 14]	CYP2D6 (Homo sapiens)	> 30 µM
Cc1nc(N2C[C@H]3C(=O)N(C)C(=N)N[C@@]3(c3ccc(C#N)s3)C2)nc(C)c1F [Example 19]	CYP2D6 (Homo sapiens)	> 30 µM
